- assayedSystem: T1, human GIP receptor (human, UniProt P48546 22-466)
- T1 sequence (looked up): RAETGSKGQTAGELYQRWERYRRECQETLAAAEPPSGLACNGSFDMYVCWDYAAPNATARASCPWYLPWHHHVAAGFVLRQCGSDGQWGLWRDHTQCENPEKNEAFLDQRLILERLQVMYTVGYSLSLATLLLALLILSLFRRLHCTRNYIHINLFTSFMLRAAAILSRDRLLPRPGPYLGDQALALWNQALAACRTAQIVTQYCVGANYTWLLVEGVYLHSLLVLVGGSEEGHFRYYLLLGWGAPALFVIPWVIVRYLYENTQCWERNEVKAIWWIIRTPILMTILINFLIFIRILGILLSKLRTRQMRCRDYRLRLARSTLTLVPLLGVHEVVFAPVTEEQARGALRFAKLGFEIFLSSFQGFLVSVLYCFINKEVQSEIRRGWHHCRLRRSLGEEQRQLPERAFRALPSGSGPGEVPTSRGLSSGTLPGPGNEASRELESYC
- experimentNotes: cell-based or functional assay
Numbered stars: 1 amine (or outer) side, 2 acyl side, 3 side chain; on linkers, the order of the positions; unused ones are H or OH. Square brackets hold non-standard residues; d marks the D form. Side chains are listed from the residue outwards. Ends that are not written are not given here. * marks the point of attachment. γGlu = O=C(O)[C@H](CCC(=O)[*:2])N[*:1]; Palmitoyl = CCCCCCCCCCCCCCCC(=O)*; Aib = CC(C)(N)C(=O)O
Reported EC50 hGIP-R values follow for various binders
Unit nM implied. Number only.

The following binders have reported results that may help.
HXQGTFTSDLSKQKDEEAARLFIEWLXAGGPSSGAPPPS (D-Ser at 2; Lys 14 side chain K(AEEAc-AEEAc- E-x70) = (2-{2-[2-(2-{2-[(4S)-4-Carboxy-4-octadecanoylamino-butyrylamino]-ethoxy}-ethoxy)-acetylamino]-ethoxy}-ethoxy)-acetyl; Aib at 27; C-terminal amide) [SEQ ID NO: 21] | 2.45
H[dS]HGTFTSDLSKQK([γGlu-γGlu-Palmitoyl])DEEAARLFIEWL[Aib]K[dA]GPSSGAPPPS-NH2 [SEQ ID NO: 26] | 5.53
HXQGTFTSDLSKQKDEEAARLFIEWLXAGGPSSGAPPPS (D-Ser at 2; Lys 14 side chain K(γE-x53) = (S)-4-Carboxy-4-hexadecanoylamino-butyryl-; Aib at 27; C-terminal amide) [SEQ ID NO: 14] | 5.36
H[dS]HGTFTSDLSKQK([γGlu-γGlu-Palmitoyl])DEEAARLFIEWL[Aib]AGGPSSGAPPPS-NH2 [SEQ ID NO: 7] | 0.908

Tell me the measured EC50 hGIP-R of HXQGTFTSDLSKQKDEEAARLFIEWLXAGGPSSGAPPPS (D-Ser at 2; Lys 14 side chain K(γE-γE-x53) = (S)-4-Carboxy-4-((S)-4-carboxy-4-hexadecanoylamino-butyrylamino)-butyryl-; Aib at 27; C-terminal amide) [SEQ ID NO: 9] , please.
3.6

Quick one: EC50 hGIP-R of HXQGTFTSDLSKQKDEEAARLFIEWLXKXGPSSGAPPPS (D-Ser at 2; Lys 14 side chain K(γE-γE-x53) = (S)-4-Carboxy-4-((S)-4-carboxy-4-hexadecanoylamino-butyrylamino)-butyryl-; Aib at 27; D-Ala at 29; C-terminal amide) [SEQ ID NO: 24] ?
14.1

Need EC50 hGIP-R, item HXQGTFTSDLSKQKDEEAARLFIEWLXAXGPSSGAPPPS (D-Ser at 2; Lys 14 side chain K(γE-γE-x53) = (S)-4-Carboxy-4-((S)-4-carboxy-4-hexadecanoylamino-butyrylamino)-butyryl-; Aib at 27; D-Ala at 29; C-terminal amide) [SEQ ID NO: 12]
0.336
